system: Candida albicans; experiment: Inhibition of Candida albicans CDR1 expressed in Saccharomyces cerevisiae AD assessed as potentiation of fluconazole-induced antifungal activity against Saccharomyces cerevisiae AD by checkerboard method
Observed Property: fractional inhibitory concentration index (FICI)

[[record]]
molecule = "C=C1[C@@H](OC(C)=O)[C@H]2[C@@H](OC(=O)COC(=O)c3ccccc3)[C@](C)(OC(C)=O)C[C@]2(O)C(=O)[C@@H](C)/C=C/C(C)(C)[C@H](OC(C)=O)[C@H](OC(C)=O)[C@H]1OC(=O)C(C)C"
data_value = 1.2

[[record]]
molecule = "C=C1[C@@H](OC(=O)C(C)CC)[C@H]2[C@@H](O)[C@](C)(OC(C)=O)C[C@]2(O)C(=O)[C@@H](C)/C=C/C(C)(C)[C@H](OC(C)=O)[C@H](OC(C)=O)[C@H]1OC(=O)c1ccccc1 (some centres undefined)"
data_value = 1.5

[[record]]
molecule = "C=C1[C@@H](OC(C)=O)[C@H]2[C@@H](OC(=O)c3ccccc3)[C@@H](C)C[C@]2(O)[C@H](O)[C@H](C)/C=C/C(C)(C)C(=O)[C@H](OC(=O)C(C)C)[C@H]1OC(C)=O"
data_value = 2

[[record]]
molecule = "CC(=O)O[C@H]1[C@@H](OC(C)=O)C(C)(C)/C=C/[C@@](C)(O)C(=O)[C@@]2(O)C[C@@](C)(OC(C)=O)[C@H](OC(C)=O)[C@@H]2[C@H]2OC(=O)CC[C@@]2(OC(C)=O)[C@@H]1OC(=O)C(C)C"
data_value = 2

